System: Mycolicibacterium smegmatis
Test: Inhibition of oxidative phosphorylation in Mycobacterium smegmatis membrane vesicles assessed as inhibition of NADH driven ATP synthesis by luciferin/luciferase assay
Format: functional

COMPOUND	MEASUREMENT UNITS	INEQUALITY SIGN	IC50
COCCN(C1CCN(Cc2c(-c3ccccc3)[nH]c3c(C)cccc23)C1)S(C)(=O)=O (stereo not drawn)	µM	=	15.6
O=S(=O)(NC1CCN(Cc2ccncc2)CC1)c1ccc(-n2cccn2)cc1	µM	>	70
COc1nc2ccc(Br)cc2cc1[C@@H](c1ccccc1)[C@@](O)(CCN(C)C)c1cccc2ccccc12 [BEDAQUILINE]	µM	=	0.001
